Target: T1, STAT4 (UniProt Q14765 1-748, limits assumed)
T1 construct: also called STAT4 polypeptide
T1 sequence (looked up): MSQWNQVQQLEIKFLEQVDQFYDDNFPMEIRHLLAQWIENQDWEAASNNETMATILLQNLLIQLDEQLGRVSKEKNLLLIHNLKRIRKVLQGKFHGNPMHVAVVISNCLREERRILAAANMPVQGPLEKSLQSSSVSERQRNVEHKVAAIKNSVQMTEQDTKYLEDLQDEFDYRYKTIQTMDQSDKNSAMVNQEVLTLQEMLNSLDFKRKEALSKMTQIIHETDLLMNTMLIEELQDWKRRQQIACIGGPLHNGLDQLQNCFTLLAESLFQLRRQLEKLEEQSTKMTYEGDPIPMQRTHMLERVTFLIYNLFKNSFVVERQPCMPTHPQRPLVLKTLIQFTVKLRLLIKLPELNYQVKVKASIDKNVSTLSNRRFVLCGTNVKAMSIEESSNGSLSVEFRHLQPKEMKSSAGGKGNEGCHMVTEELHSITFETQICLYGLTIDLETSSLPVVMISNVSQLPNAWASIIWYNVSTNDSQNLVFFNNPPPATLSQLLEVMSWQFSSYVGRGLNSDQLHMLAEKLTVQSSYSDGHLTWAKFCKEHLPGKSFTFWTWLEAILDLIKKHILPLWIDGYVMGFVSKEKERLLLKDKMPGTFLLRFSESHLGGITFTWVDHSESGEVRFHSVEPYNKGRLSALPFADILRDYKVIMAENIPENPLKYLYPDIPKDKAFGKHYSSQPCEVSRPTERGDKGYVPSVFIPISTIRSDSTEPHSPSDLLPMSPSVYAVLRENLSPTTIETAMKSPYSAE
Experiment: binding affinity of the phosphorylated receptor peptide for STAT4; method not stated at the table (paragraph 32 speaks of IC50)
Non-standard residues stand in square brackets, D forms with d. No end group written: not given here. pY = N[C@@H](Cc1ccc(OP(=O)(O)O)cc1)C(=O)O
METRIC NAME: BINDING AFFINITY (µM)
Response body: numeric value in µM, unit text excluded.

# BINDER, METRIC NAME, UNITS TEXT, TEST RESULT
rows = [
    ("SHEG[pY]LPWNID [SHEGY^PLPWNID]", "BINDING AFFINITY", "µM", 0.93),
    ("SHEG[pY]LPQNID [SHEGY^PLPQNID]", "BINDING AFFINITY", "µM", 0.39),
    ("SHEG[pY]LPHNID [SHEGY^PLPHNID]", "BINDING AFFINITY", "µM", 0.7),
]

Request: Fill in the blank: the reported BINDING AFFINITY of SHEG[pY]LPSNID (Native IL-12 receptor-derived phosphopeptide; also called IL-12 receptor peptide) [SHEGY^PLPSNID (IL-12 receptor)] is ____.
Result: 2.9

Request: What do we get for SHEG[pY]LPNNID [SHEGY^PLPNNID] ?
Result: 0.51
